# measurement_notes: Pharmacokinetics assay in Beagle dogs
# Type: in vivo
# measurement_parameters: male, beagle, dog, plasma, po, 5 mg/kg, intragastric, 5 mg/kg (as free acid), read-out: Clearance CL/F (converted)
property_label: CL/F (mL/min/kg)
Numeric answer only, unit mL/min/kg assumed.

INSERT INTO results (record_smiles, units_text, value_observed) VALUES
  ('CC1=NN(c2ccc3c(c2)CCCC3)C(=O)/C1=N\Nc1cccc(-c2ccc(C(=O)O)o2)c1O.NCCO.NCCO', 'mL/min/kg', 8.3);

Now for another entry.
Input: Which CL/F is reported for this compound? `CC1=NN(c2ccc3c(c2)CCCC3)C(=O)/C1=N\Nc1cccc(-c2ccc(C(=O)O)o2)c1O`
Output: 11

----------
# target_desc: UniProt:P40238
# Sequence (P40238 26-635): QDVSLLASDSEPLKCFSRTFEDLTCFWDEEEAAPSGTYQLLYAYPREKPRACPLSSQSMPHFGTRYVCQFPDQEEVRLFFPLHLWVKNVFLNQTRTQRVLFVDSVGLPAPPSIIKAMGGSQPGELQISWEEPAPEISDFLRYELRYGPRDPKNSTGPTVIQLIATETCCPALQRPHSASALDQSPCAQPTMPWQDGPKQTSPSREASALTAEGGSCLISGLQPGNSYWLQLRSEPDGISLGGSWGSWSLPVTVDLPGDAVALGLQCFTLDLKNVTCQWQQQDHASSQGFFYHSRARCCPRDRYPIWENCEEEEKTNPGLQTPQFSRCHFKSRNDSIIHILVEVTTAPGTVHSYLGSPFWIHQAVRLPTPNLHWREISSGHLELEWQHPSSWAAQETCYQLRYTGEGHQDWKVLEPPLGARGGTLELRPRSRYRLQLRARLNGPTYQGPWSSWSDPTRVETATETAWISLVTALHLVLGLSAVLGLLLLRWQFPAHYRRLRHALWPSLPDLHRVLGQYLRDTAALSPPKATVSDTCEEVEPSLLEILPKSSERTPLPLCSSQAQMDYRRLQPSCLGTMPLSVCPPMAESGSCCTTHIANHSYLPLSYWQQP
# measurement_notes: Proliferation effect on BAF3-TPOR cell (CCK-8)
# measurement_parameters: rate relative to rhTPO positive control
Rule: EC50 below 30 nM gives condition met, anything at or above gives condition not met.

Sample answers from the record:
INSERT INTO measurements (compound, target_desc, discrete_label) VALUES
  ('CC1=NN(c2ccc3c(c2)C(C)(C)CC3)C(=O)/C1=N\Nc1cccc(-c2ccc(C(=O)O)o2)c1O.NCCO.NCCO [Example 4]', 'UniProt:P40238', 'condition met'),
  ('CC1=NN(c2ccc3c(c2)CCCC3)C(=O)/C1=N\Nc1cccc(-c2ccc(C(=O)O)o2)c1O [Example 13]', 'UniProt:P40238', 'condition met'),
  ('CC1=NN(c2ccc3c(c2)CCCC3)C(=O)/C1=N\Nc1cccc(-c2coc(C(=O)O)c2)c1O [Example 22f]', 'UniProt:P40238', 'condition not met'),
  ('CC1=NN(c2ccc3c(c2)CCCC3)C(=O)/C1=N\Nc1cccc(-c2ccc(C(=O)O)o2)c1O [Example 15]', 'UniProt:P40238', 'condition met'),
  ('CC1=NN(c2ccc3c(c2)C(C)(C)CC3)C(=O)/C1=N\Nc1cccc(-c2ccc(C(=O)O)o2)c1O [Example 4h]', 'UniProt:P40238', 'condition not met');

Input: Report whether reported EC50 is lower than 30 nM (strictly) for CC1=NN(c2ccc3c(c2)CCCC3)C(=O)/C1=N\Nc1cccc(-c2ccc(C(=O)O)o2)c1O [Example 9]
Output: condition met

Input: Report whether reported EC50 is lower than 30 nM (strictly) for CC1=NN(c2ccc3c(c2)CCCC3)C(=O)/C1=N\Nc1cccc(-c2ccc(C(=O)O)o2)c1O [Example 23]
Output: condition not met

----------
# measurement_notes: Solubility assay in water, 0.1% hydrochloric acid and methanol
# Type: physicochemical
# measurement_parameters: water
Recorded measurements of solubility, one per entry
Numeric answer only, unit µg/mL assumed.

INSERT INTO measurements (compound, property_label, value_observed) VALUES
  ('CC1=NN(c2ccc3c(c2)CCC3)C(=O)/C1=N\Nc1cccc(-c2cccc(C(=O)O)c2)c1O [Example 3]', 'solubility', 2290);

Now for another entry.
Input: Which solubility is reported for this compound? CC1=NN(c2ccc3c(c2)CCC3)C(=O)/C1=N\Nc1cccc(-c2csc(C(=O)O)c2)c1O [Example 21]
Output: 814

----------
Recorded measurements of log10 Vd/F, one per entry
# measurement_notes: Pharmacokinetics assay in rats
# Type: in vivo, SD rats
# measurement_parameters: both sexes, SD, rat, plasma, po, 50 mg/kg, SD rats, intragastric, 50 mg/Kg (as free acid); read-out: Apparent Distribution Volume Vz/F
Note: values are log10 of Vd/F expressed in L/kg.

INSERT INTO assay_data (compound, value_observed) VALUES
  ('CC1=NN(c2ccc3c(c2)CCCC3)C(=O)/C1=N\Nc1cccc(-c2ccc(C(=O)O)o2)c1O.NCCO.NCCO', 0.39),
  ('CC1=NN(c2ccc3c(c2)CCC3)C(=O)/C1=N\Nc1cccc(-c2ccc(C(=O)O)o2)c1O.NCCO.NCCO', 0.80),
  ('CC1=NN(c2ccc3c(c2)CCCC3)C(=O)/C1=N\Nc1cccc(-c2coc(C(=O)O)c2)c1O [Example 22f]', 0.93),
  ('CC1=NN(c2ccc(C)c(C)c2)C(=O)/C1=N\Nc1cccc(-c2cccc(C(=O)O)c2)c1O [Eltrombopag, eltrombopag, reference compound]', -0.02),
  ('CC1=NN(c2ccc3c(c2)CCCC3)C(=O)/C1=N\Nc1cccc(-c2ccc(C(=O)[O-])o2)c1[O-].[Na+].[Na+]', 0.98);

Now for another entry.
Input: Which log10 Vd/F is reported for this compound? `CC1=NN(c2ccc3c(c2)CCC3)C(=O)/C1=N\Nc1cccc(-c2cccc(C(=O)O)c2)c1O.NCCO.NCCO`
Output: -0.35

----------
# measurement_notes: Pharmacokinetics assay in rats
# Assay type: in vivo, SD rats
# measurement_parameters: both sexes, SD, rat, plasma, po, 50 mg/kg, SD rats, intragastric, 50 mg/Kg (as free acid); read-out: Mean Residence Time MRT
property_label: MRT
Kindly report the value followed by its unit.

// below: answered compounds
INSERT INTO assay_data (record_smiles, property_label, value_observed) VALUES
  ('CC1=NN(c2ccc3c(c2)CCC3)C(=O)/C1=N\Nc1cccc(-c2cccc(C(=O)O)c2)c1O.NCCO.NCCO', 'MRT', '4.96 h'),
  ('CC1=NN(c2ccc3c(c2)CCCC3)C(=O)/C1=N\Nc1cccc(-c2ccc(C(=O)[O-])o2)c1[O-].[Na+].[Na+]', 'MRT', '7.2 h');

Now for another entry.
Input: Which MRT is reported for this compound? `CC1=NN(c2ccc3c(c2)CCCC3)C(=O)/C1=N\Nc1cccc(-c2ccc(C(=O)O)o2)c1O.NCCO.NCCO`
Output: 13.3 h

----------
# measurement_notes: Pharmacokinetics assay in rats
# Format: in vivo, SD rats
# measurement_parameters: SD rats, intragastric, 50 mg/Kg (as free acid); 50 mg/kg
# Experimental: The compounds of the present disclosure were administrated intragastrically to rats to determine the drug concentration in plasma at different time points by HPLC-UV. The pharmacokinetic behavior of the compounds of the present disclosure was studied and evaluated in rats. […] 40 μL of the supernatant was analyzed by HPLC-UV. […]
// No strictly below 2 h in Time to peak Tmax; Yes otherwise

INSERT INTO measurements (compound, discrete_label) VALUES
  ('CC1=NN(c2ccc3c(c2)CCCC3)C(=O)/C1=N\Nc1cccc(-c2ccc(C(=O)O)o2)c1O [Example 10]', 'No');

Input: Does CC1=NN(c2ccc3c(c2)C(C)(C)CC3)C(=O)/C1=N\Nc1cccc(-c2ccc(C(=O)O)o2)c1O [Example 6] have a reported Time to peak Tmax of at least 2 h?
Output: Yes

Input: Does CC1=NN(c2ccc3c(c2)CCCC3)C(=O)/C1=N\Nc1cccc(-c2ccc(C(=O)O)o2)c1O [Example 11] have a reported Time to peak Tmax of at least 2 h?
Output: No

Input: Does `CC1=NN(c2ccc3c(c2)CCC3)C(=O)/C1=N\Nc1cccc(-c2ccc(C(=O)O)o2)c1O` have a reported Time to peak Tmax of at least 2 h?
Output: No

Input: Does CC1=NN(c2ccc3c(c2)CCCC3)C(=O)/C1=N\Nc1cccc(-c2ccc(C(=O)O)o2)c1O [Example 13] have a reported Time to peak Tmax of at least 2 h?
Output: No

Input: Does CC1=NN(c2ccc3c(c2)CCC3)C(=O)/C1=N\Nc1cccc(-c2csc(C(=O)O)c2)c1O [Example 21] have a reported Time to peak Tmax of at least 2 h?
Output: Yes

Input: Does CC1=NN(c2ccc3c(c2)CCC3)C(=O)/C1=N\Nc1cccc(-c2csc(C(=O)O)c2)c1O [Example 19d] have a reported Time to peak Tmax of at least 2 h?
Output: Yes

----------
# measurement_notes: Solubility assay in water, 0.1% hydrochloric acid and methanol
# Type: physicochemical
# measurement_parameters: 0.1% hydrochloric acid, simulated gastric fluid, 0.1% hydrochloric acid; read-out: solubility
Recorded measurements of solubility, one per entry

INSERT INTO results (molecule, value_observed) VALUES
  ('CC1=NN(c2ccc3c(c2)CCC3)C(=O)/C1=N\Nc1cccc(-c2ccc(C(=O)O)o2)c1O [Example 16a]', '< 1 µg/mL'),
  ('CC1=NN(c2ccc3c(c2)CCCC3)C(=O)/C1=N\Nc1cccc(-c2ccc(C(=O)O)o2)c1O [Example 8]', '< 1 µg/mL'),
  ('CC1=NN(c2ccc3c(c2)CCC3)C(=O)/C1=N\Nc1cccc(-c2cccc(C(=O)O)c2)c1O [Example 1j]', '< 1 µg/mL'),
  ('CC1=NN(c2ccc3c(c2)CCCC3)C(=O)/C1=N\Nc1cccc(-c2ccc(C(=O)O)o2)c1O.NCCO.NCCO [Example 7]', '29 µg/mL'),
  ('CC1=NN(c2ccc3c(c2)CCC3)C(=O)/C1=N\Nc1cccc(-c2csc(C(=O)O)c2)c1O [Example 19d]', '< 1 µg/mL'),
  ('CC1=NN(c2ccc3c(c2)C(C)(C)CC3)C(=O)/C1=N\Nc1cccc(-c2ccc(C(=O)O)o2)c1O.NCCO.NCCO [Example 4]', '24 µg/mL'),
  ('CC1=NN(c2ccc3c(c2)CCCC3)C(=O)/C1=N\Nc1cccc(-c2ccc(C(=O)[O-])o2)c1[O-].[Na+].[Na+] [Example 14]', '< 1 µg/mL'),
  ('CC1=NN(c2ccc3c(c2)CCC3)C(=O)/C1=N\Nc1cccc(-c2cccc(C(=O)O)c2)c1O.NCCO.NCCO [Example 1]', '< 1 µg/mL');

Input: Which solubility is reported for this molecule? CC1=NN(c2ccc3c(c2)C(C)(C)CC3)C(=O)/C1=N\Nc1cccc(-c2ccc(C(=O)O)o2)c1O [Example 4h]
Output: < 1 µg/mL
